# experimental_target: PDGF-Ra (Homo sapiens, UniProt P16234)
# Construct: host or cells: G-292 human osteosarcoma cells
# Sequence (P16234 24-1089): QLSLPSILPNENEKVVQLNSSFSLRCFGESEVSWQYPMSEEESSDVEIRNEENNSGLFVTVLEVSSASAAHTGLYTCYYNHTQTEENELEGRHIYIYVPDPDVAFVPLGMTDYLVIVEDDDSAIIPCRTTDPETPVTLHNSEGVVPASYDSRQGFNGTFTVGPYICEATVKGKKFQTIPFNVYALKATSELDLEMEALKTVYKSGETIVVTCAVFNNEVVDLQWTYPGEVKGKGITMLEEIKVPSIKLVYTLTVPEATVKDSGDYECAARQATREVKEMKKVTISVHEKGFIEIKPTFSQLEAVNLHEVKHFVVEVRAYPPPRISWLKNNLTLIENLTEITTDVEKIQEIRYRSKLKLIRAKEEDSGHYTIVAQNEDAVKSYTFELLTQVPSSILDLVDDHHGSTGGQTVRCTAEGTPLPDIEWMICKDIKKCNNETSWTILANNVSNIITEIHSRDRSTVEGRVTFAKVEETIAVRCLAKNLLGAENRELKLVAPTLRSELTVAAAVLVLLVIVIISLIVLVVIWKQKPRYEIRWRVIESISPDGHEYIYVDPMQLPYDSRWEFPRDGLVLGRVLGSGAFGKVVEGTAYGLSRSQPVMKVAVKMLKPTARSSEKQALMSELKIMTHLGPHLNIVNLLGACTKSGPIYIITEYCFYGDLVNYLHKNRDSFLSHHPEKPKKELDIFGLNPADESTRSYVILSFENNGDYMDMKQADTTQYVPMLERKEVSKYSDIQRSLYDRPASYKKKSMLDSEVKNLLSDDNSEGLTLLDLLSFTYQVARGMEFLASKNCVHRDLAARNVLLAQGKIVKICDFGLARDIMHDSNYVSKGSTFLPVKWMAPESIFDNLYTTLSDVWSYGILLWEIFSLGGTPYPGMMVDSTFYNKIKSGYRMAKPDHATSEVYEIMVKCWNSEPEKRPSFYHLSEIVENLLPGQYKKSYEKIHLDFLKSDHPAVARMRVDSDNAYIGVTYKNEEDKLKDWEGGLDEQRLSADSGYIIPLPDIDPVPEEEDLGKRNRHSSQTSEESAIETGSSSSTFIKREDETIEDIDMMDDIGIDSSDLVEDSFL
# test_method_notes: Inhibitory activity against PDGF-Ra phosphorylation by PDGF-AA stimulation using G292
# Type: cell-based
# cond: G292; figure in parentheses in >100( ); at 100 nM; read-out: PDGF (E) inhibition (%) at 100 nM
// inhibition at 0.1 µM lookup, one value per entry
Expressed in %, but write only the number.

Answered examples (5):
COc1cc2ncnc(Oc3cc(C)c(NC(=O)OC4CCCC4)cc3C)c2cc1OC: 38
COc1cc2nccc(Oc3ccc(NC(=S)NC(=O)CCC4CCCC4)c(Cl)c3)c2cc1OC: 30
COc1cc2nccc(Oc3cc(C)c(NCCCOc4ccccc4C)cc3C)c2cc1OC: 30
COc1cc2ncnc(Oc3ccc(NC(=S)NC(=O)c4ccccn4)cc3)c2cc1OC: 35
CCCCCCCCc1ccc(C(=O)NC(=S)Nc2ccc(Oc3ccnc4cc(OC)c(OC)cc34)cc2)cc1: 47

Recorded inhibition at 0.1 µM for COc1cc2nccc(Oc3ccc(NC(=S)NC(=O)c4ccc(C5CCCCC5)cc4)cc3)c2cc1OC , please?
22

Recorded inhibition at 0.1 µM for COc1cc2nccc(Oc3cc(C)c(NC(=O)OCc4cccc(C)c4)cc3C)c2cc1OC , please?
27

Recorded inhibition at 0.1 µM for COc1cc2nccc(Oc3ccc(NC(=S)NC(=O)c4cc(Cl)cc(Cl)c4)c(F)c3)c2cc1OC , please?
48

====

# experimental_target: PDGF-Ra (Homo sapiens, UniProt P16234)
# Construct: host or cells: G-292 human osteosarcoma cells
# test_method_notes: Inhibitory activity against PDGF-Ra phosphorylation by PDGF-AA stimulation using G292
# Type: cell-based
# cond: G292; figure in parentheses in >100( ); at 100 nM; read-out: PDGF (E) inhibition (%) at 100 nM
assay_metric: inhibition at 0.1 µM (%)
Expressed in %, but write only the number.

COc1ccc(C(C)OC(=O)Nc2cc(C)c(Oc3ccnc4cc(OC)c(OC)cc34)cc2C)cc1 (centres unmarked): 45

Recorded inhibition at 0.1 µM for CCOCCC(=O)NC(=S)Nc1ccc(Oc2ccnc3cc(OC)c(OC)cc23)c(Cl)c1 , please?
17

====

// pIC50 lookup, one value per entry
# experimental_target: PDGF-Ra (Homo sapiens)
# Construct: host or cells: G-292 human osteosarcoma cells
# test_method_notes: Inhibitory activity against PDGF-Ra phosphorylation by PDGF-AA stimulation using G292
# Type: cell-based
# cond: Pharmacological Test Example 1; > means inhibition at indicated concentration not more than 50%, < and << not less than 50%; read-out: PDGF (E) IC50
On this scale, pIC50 is minus log10 of a concentration expressed in M (mol/L).

Answered examples (3):
COc1cc2nccc(Oc3ccc(NC(=O)Oc4ccc(C(C)(C)C)cc4)c(C)c3C)c2cc1OC: 7.80
COc1cc2ncnc(Oc3ccc(NC(=O)OC(C)c4cc(F)c(F)cc4F)c(Cl)c3)c2cc1OC (stereo not drawn): 7.42
COc1cc2nccc(Oc3ccc(NC(=O)OCc4ccccc4C)cc3)c2cc1OC: 8.40

Recorded pIC50 for COc1cc2nccc(Oc3cc(C)c(NC(=O)OCCCOc4ccccc4Cl)cc3C)c2cc1OC , please?
7.66

Recorded pIC50 for COc1cc2nccc(Oc3ccc(NC(=O)OCc4ccc(Cl)cc4)c(C)c3C)c2cc1OC , please?
8.22

Recorded pIC50 for COc1cc2nccc(Oc3ccc(NC(=O)OCc4ccc(C)cc4)c(C)c3C)c2cc1OC , please?
8.00
